The reported numbers originate from PubChem BioAssay.

For each entry below, report its inhibition value.
# measurement.protocol: TLR3 IRF3 reporter activation blockers – cell-based, poly I:C stimulus, luciferase, 10K MLSCN set, primary screen (AID 602277)
# run.parameters: HEK293-TLR3 RL24 IRF3 luciferase reporter, at 10 µM, hits give high values
A number alone suffices; assume %.

[ask] Assign inhibition to the following record: CCOc1ccc(C2/C(=C(/O)c3ccccc3)C(=O)C(=O)N2CCCN(C)C)cc1OC (configuration not stated)
[reply] 15.1

[ask] Indicate its recorded inhibition; the molecule in question is C=CCC(Nc1ccco1)c1ccccc1 (configuration not stated)
[reply] 19.6

[ask] Give reported inhibition value for CN1C(=O)C2(NCCc3c2[nH]c2ccccc32)c2ccccc21 (configuration not stated)
[reply] 34.7

[ask] Could you please provide reported inhibition for COCCCNC(=O)CCc1nc(-c2ccccc2Cl)no1 ? Thanks!
[reply] 23.4

[ask] Give the value of inhibition reported for the following: CCOC(=O)c1[nH]cc(-c2ccccc2)c1N1CCOCC1
[reply] 15.7

[ask] Using the record for CCC(=O)/C=C1\Sc2ccc(OC)cc2N1CCO , state its measured inhibition.
[reply] 9.17

[ask] Find the measured inhibition of O=C(O)C1CC(=O)N(c2ccc(OCc3c(F)cccc3Cl)cc2)C1 (configuration not stated) and report it.
[reply] 17.3

[ask] Identify measured inhibition associated with CCCCn1cnc2c(cnn2-c2ccc(Cl)cc2)c1=O
[reply] -141

[ask] Kindly indicate its recorded inhibition. Item: CCNc1nc(NC(C)C)nc(N(C#N)CCOc2ccc(Cl)cc2Cl)n1
[reply] -2.09

[ask] Please look at this molecule and report its inhibition: COC(=O)Cc1c(C)nc2nc(-c3ccccc3)[nH]n2c1=O
[reply] 6.76

[ask] State its inhibition: O=C(Nc1cccc(C(=O)N2CCOCC2)c1)c1cccnc1
[reply] 0.71

[ask] Please give the documented inhibition of Cc1ccccc1NC(=O)C1Cc2ccccc2C(=O)O1 (configuration not stated)
[reply] -31.6

[ask] Read the entry Cc1c(NC(=O)C2CCCNC2=O)c(=O)n(-c2ccccc2)n1C (configuration not stated) and write its reported inhibition.
[reply] 6.36

[ask] Provide one value: measured inhibition of CCc1ccc(NC(=O)c2cc(-c3ccco3)on2)cc1
[reply] -129

[ask] Return reported inhibition. Input molecule: O=C(CSc1nc2[nH]ncc2c(=O)n1-c1ccccc1Br)NCc1ccco1
[reply] 28.1

[ask] Supply inhibition value. Item: COc1cc(C2Oc3cc(C4Oc5cc(O)cc(O)c5C(=O)C4O)ccc3OC2CO)ccc1O (configuration not stated)
[reply] -16.2

[ask] Please give measured inhibition of the following entry: COc1ccccc1NC1=NC2(CCCC2)N=C(N)N1
[reply] 19.3

[ask] Tell me measured inhibition for CCn1c(SCC(=O)Nc2nccs2)nnc1-c1ccncc1 please.
[reply] 21.3

[ask] Answer with the recorded inhibition of O=c1c2ccccc2nc(-c2cccc(Cl)c2)n1O only.
[reply] 6.85

[ask] Look up and report measured inhibition for this entry: CNC(=O)c1c(O)c2cccc3c2n(c1=O)CC3
[reply] -8.91

[ask] Tell me its inhibition given CCC(C)OC(=O)n1ccc(C(=O)Nc2nccs2)n1 (configuration not stated) as the entry.
[reply] -27.4

[ask] Entry Cn1cnnc1Sc1nc2c(c(=O)n(C)c(=O)n2C)n1C needs its inhibition filled in; supply it.
[reply] 9.62

[ask] Fill in reported inhibition for this entry: Cc1ccccc1NC(=O)c1c(F)c(F)c(F)c(F)c1F
[reply] 11.6

[ask] Provide inhibition value for the following molecule: CCCSC1=C(C#N)C(c2ccccc2OCC)CC(=O)N1 (configuration not stated)
[reply] 17.7

[ask] Give me measured inhibition, please, for this molecule: CCCCNC(=O)c1cc(-c2ccc(F)cc2)on1
[reply] -168

[ask] Provide inhibition value for the following molecule: CCOC(=O)C1CCN(C(=O)Nc2ccc3snnc3c2)CC1
[reply] 10.8

[ask] # return recorded inhibition for input COC(=O)c1ccccc1NC(=O)CSc1nnnn1C1CCCCC1
[reply] 20.1

[ask] Specify reported inhibition for the molecule shown: CCCCN(CC)S(=O)(=O)N1CCC(C(=O)NCc2ccc(F)cc2)CC1
[reply] 15.9

[ask] Give recorded inhibition. CCn1c(Cc2ccc(OC)cc2)nnc1SCC(=O)Nc1cccc(C(=O)OC)c1
[reply] 8.51

[ask] Could you please provide reported inhibition for O=c1oc2ccccc2n1CCn1c2ccccc2c2nc3ccccc3nc21 ? Thanks!
[reply] 9.99

[ask] Tell me its inhibition given O=C(COc1ncnc2ccccc12)NCc1ccc2c(c1)OCO2 as the entry.
[reply] 16.2

[ask] Give the value of inhibition reported for the following: COc1cc(NS(=O)(=O)c2ccc(Br)s2)cc(OC)c1
[reply] 10

[ask] Check the records and state inhibition for Nc1nc2ccccc2n1/N=C/c1ccc(Br)cc1
[reply] -127

[ask] Supply inhibition value. Item: COC(=O)c1sc(S(=O)(=O)Nc2ccc3cn[nH]c3c2)c(C(=O)OC)c1C
[reply] 31.2

[ask] Please list inhibition recorded for the molecule CN(C)S(=O)(=O)c1ccc(S(=O)(=O)Nc2ccc3c(c2)oc2ccccc23)cc1
[reply] -1.94

[ask] Dear colleague, please send me the reported inhibition for Cc1ccc(N2CC(C(=O)N3CCN(C(=O)c4ccco4)CC3)CC2=O)cc1 (configuration not stated) when you can.
[reply] 21.1

[ask] Hello, please tell me recorded inhibition for this one: NC(=O)C1(N2CCCCC2)CCN(C2CC(=O)N(Cc3cccs3)C2=O)CC1 (configuration not stated)
[reply] 20.4

[ask] Tell me measured inhibition for O=C(O)c1c[nH]c2ccc(S(=O)(=O)N3CCN(c4ccc(F)cc4)CC3)cc2c1=O please.
[reply] 0.478

[ask] Look up and state reported inhibition for COC(=O)c1ccccc1NC(=O)c1cc(-c2ccc(OC)c(OC)c2)on1
[reply] 5.03

[ask] Note inhibition for the molecule shown: CCCC(=O)Nc1ccccc1NC(=O)CN(C)S(=O)(=O)c1ccc(C)cc1
[reply] 11.1

[ask] Return inhibition for the following molecule: CCOC(=O)/C=C(\C)Sc1cc(=O)oc2ccccc12
[reply] 47.5

[ask] Input O=C(Cn1cccc1)N1CCN(C(c2ccccc2)c2ccccc2)CC1 , output reported inhibition.
[reply] 22
